# assay-system: 5-hydroxytryptamine receptor 2B (Homo sapiens, UniProt P41595)
# Sequence (P41595 whole entry): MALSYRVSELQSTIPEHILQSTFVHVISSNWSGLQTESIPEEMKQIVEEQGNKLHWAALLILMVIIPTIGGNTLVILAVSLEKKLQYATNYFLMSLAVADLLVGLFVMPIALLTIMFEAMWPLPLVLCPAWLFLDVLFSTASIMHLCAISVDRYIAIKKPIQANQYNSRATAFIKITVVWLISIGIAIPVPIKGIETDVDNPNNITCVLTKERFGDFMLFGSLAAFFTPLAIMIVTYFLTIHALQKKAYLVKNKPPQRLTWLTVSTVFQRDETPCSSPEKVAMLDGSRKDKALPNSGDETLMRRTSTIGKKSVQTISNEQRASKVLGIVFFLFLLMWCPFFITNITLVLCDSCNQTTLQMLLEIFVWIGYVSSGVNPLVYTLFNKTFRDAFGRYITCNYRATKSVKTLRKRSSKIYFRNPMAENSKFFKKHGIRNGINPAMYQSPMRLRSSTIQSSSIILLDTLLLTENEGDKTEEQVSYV
# test-description: Displacement of […] from human 5-HT2B receptor by competitive radioligand binding assay
property-name: pKi
Give bare numbers, as −log10 of the molar value.

Reported pKi, compound "CC(C)n1nc2c(c1-c1ccc(F)cc1)CCNCC2" : ____ 7.60
